# Test system: Escherichia coli TOP10
# experiment.notes: shrunken log2 fold change of peptide-encoding DNA abundance (4.5 h post-induction vs induction); higher = less antimicrobial activity (less host growth inhibition)
# condition.parameters: time post-induction: 4.5 h; library: site-saturation at positions 5, 18, 19, 20
Listing: shrunken log2 fold change of selected sequences
measured.attribute: shrunken log2 fold change

{"chain": "RRIRCRPPRLPRPRPRPPMNPRP", "value.observed": -0.0519}
{"chain": "RRIRIRPPRLPRPRPRPQQEPRP", "value.observed": -0.056}
{"chain": "RRIRCRPPRLPRPRPRPIYGPRP", "value.observed": -0.203}
{"chain": "RRIRCRPPRLPRPRPRPEMMPRP", "value.observed": 0.0935}
{"chain": "RRIRNRPPRLPRPRPRPHIPPRP", "value.observed": -0.793}
{"chain": "RRIRNRPPRLPRPRPRPCGTPRP", "value.observed": -0.139}
{"chain": "RRIRNRPPRLPRPRPRPHACPRP", "value.observed": 0.0169}
{"chain": "RRIRGRPPRLPRPRPRPHHIPRP", "value.observed": -0.525}
{"chain": "RRIRLRPPRLPRPRPRPWVKPRP", "value.observed": -0.0122}
{"chain": "RRIRTRPPRLPRPRPRPAEEPRP", "value.observed": 0.0505}
{"chain": "RRIRWRPPRLPRPRPRPLIMPRP", "value.observed": -0.0185}
{"chain": "RRIRGRPPRLPRPRPRPMHTPRP", "value.observed": 1.25}
{"chain": "RRIRVRPPRLPRPRPRPYVKPRP", "value.observed": -0.354}
{"chain": "RRIRKRPPRLPRPRPRPFPPPRP", "value.observed": 0.33}
{"chain": "RRIRERPPRLPRPRPRPWAKPRP", "value.observed": -0.015}

====

Listing: shrunken log2 fold change of selected sequences
# Tested on: Escherichia coli TOP10
# experiment.notes: shrunken log2 fold change of peptide-encoding DNA abundance (4.5 h post-induction vs induction); higher = less antimicrobial activity (less host growth inhibition)
# condition.parameters: time post-induction: 4.5 h; library: site-saturation at positions 5, 18, 19, 20

{"chain": "RRIRWRPPRLPRPRPRPEPYPRP", "assay.system": "Escherichia coli TOP10", "shrunken log2 fold change": 0.0876}
{"chain": "RRIRPRPPRLPRPRPRPFITPRP", "assay.system": "Escherichia coli TOP10", "shrunken log2 fold change": -0.678}
{"chain": "RRIRVRPPRLPRPRPRPETHPRP", "assay.system": "Escherichia coli TOP10", "shrunken log2 fold change": -0.0797}
{"chain": "RRIRPRPPRLPRPRPRPFCGPRP", "assay.system": "Escherichia coli TOP10", "shrunken log2 fold change": 0.00967}
{"chain": "RRIRSRPPRLPRPRPRPPPVPRP", "assay.system": "Escherichia coli TOP10", "shrunken log2 fold change": 0.745}
{"chain": "RRIRRRPPRLPRPRPRPAYRPRP", "assay.system": "Escherichia coli TOP10", "shrunken log2 fold change": 0.108}
{"chain": "RRIRDRPPRLPRPRPRPSAEPRP", "assay.system": "Escherichia coli TOP10", "shrunken log2 fold change": 0.162}
{"chain": "RRIRMRPPRLPRPRPRPHNQPRP", "assay.system": "Escherichia coli TOP10", "shrunken log2 fold change": 0.177}

====

# Test system: Escherichia coli TOP10;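 also: peptides expressed intracellularly from a pBAD plasmid library in pooled LB shake-flask culture, induced with 0.3% L-arabinose, DNA abundance read by NGS, three biological replicates, DESeq2 with apeglm shrinkage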
# experiment.notes: shrunken log2 fold change of peptide-encoding DNA abundance (4.5 h post-induction vs induction); higher = less antimicrobial activity (less host growth inhibition)
# condition.parameters: time post-induction: 4.5 h; library: site-saturation at positions 5, 18, 19, 20
Listing: shrunken log2 fold change of selected sequences

{"chain": "RRIRARPPRLPRPRPRPWMSPRP", "shrunken log2 fold change": 0.0814}
{"chain": "RRIRGRPPRLPRPRPRPCLFPRP", "shrunken log2 fold change": 0.346}
{"chain": "RRIRNRPPRLPRPRPRPMHCPRP", "shrunken log2 fold change": -0.0148}
{"chain": "RRIRERPPRLPRPRPRPAHIPRP", "shrunken log2 fold change": -0.0903}
{"chain": "RRIRPRPPRLPRPRPRPMRNPRP", "shrunken log2 fold change": 0.905}
{"chain": "RRIRHRPPRLPRPRPRPSNLPRP", "shrunken log2 fold change": -0.289}
{"chain": "RRIRARPPRLPRPRPRPDNLPRP", "shrunken log2 fold change": -0.0846}
{"chain": "RRIRARPPRLPRPRPRPQSTPRP", "shrunken log2 fold change": 0.0836}
{"chain": "RRIRRRPPRLPRPRPRPWMVPRP", "shrunken log2 fold change": -0.151}
{"chain": "RRIRVRPPRLPRPRPRPLHGPRP", "shrunken log2 fold change": 0.0379}
{"chain": "RRIRGRPPRLPRPRPRPFHNPRP", "shrunken log2 fold change": -0.388}
{"chain": "RRIRIRPPRLPRPRPRPLRLPRP", "shrunken log2 fold change": 0.281}
{"chain": "RRIRPRPPRLPRPRPRPSAFPRP", "shrunken log2 fold change": 0.191}
{"chain": "RRIRTRPPRLPRPRPRPIHNPRP", "shrunken log2 fold change": -0.714}
{"chain": "RRIRWRPPRLPRPRPRPQLPPRP", "shrunken log2 fold change": -0.00654}
{"chain": "RRIRNRPPRLPRPRPRPKEIPRP", "shrunken log2 fold change": 0.0136}
{"chain": "RRIRSRPPRLPRPRPRPRRPPRP", "shrunken log2 fold change": 0.364}
{"chain": "RRIRIRPPRLPRPRPRPPCKPRP", "shrunken log2 fold change": -0.422}
{"chain": "RRIRNRPPRLPRPRPRPSKKPRP", "shrunken log2 fold change": -0.0392}
{"chain": "RRIRQRPPRLPRPRPRPQANPRP", "shrunken log2 fold change": -0.165}
{"chain": "RRIRTRPPRLPRPRPRPVKSPRP", "shrunken log2 fold change": -0.157}
{"chain": "RRIRGRPPRLPRPRPRPPNMPRP", "shrunken log2 fold change": 0.0204}
{"chain": "RRIRYRPPRLPRPRPRPMLAPRP", "shrunken log2 fold change": -0.269}
{"chain": "RRIRARPPRLPRPRPRPAFEPRP", "shrunken log2 fold change": 0.702}
{"chain": "RRIRPRPPRLPRPRPRPNQKPRP", "shrunken log2 fold change": -0.0811}
{"chain": "RRIRKRPPRLPRPRPRPHINPRP", "shrunken log2 fold change": -0.124}
{"chain": "RRIRSRPPRLPRPRPRPMMLPRP", "shrunken log2 fold change": 0.15}
{"chain": "RRIRHRPPRLPRPRPRPAYNPRP", "shrunken log2 fold change": -1.04}
{"chain": "RRIRFRPPRLPRPRPRPSDKPRP", "shrunken log2 fold change": -0.355}
{"chain": "RRIRNRPPRLPRPRPRPLPDPRP", "shrunken log2 fold change": -0.0552}
{"chain": "RRIRKRPPRLPRPRPRPYYPPRP", "shrunken log2 fold change": -0.227}
{"chain": "RRIRIRPPRLPRPRPRPADEPRP", "shrunken log2 fold change": -0.08}
{"chain": "RRIRNRPPRLPRPRPRPWNTPRP", "shrunken log2 fold change": 0.0705}
{"chain": "RRIRLRPPRLPRPRPRPQKTPRP", "shrunken log2 fold change": -0.03}
{"chain": "RRIRWRPPRLPRPRPRPSRCPRP", "shrunken log2 fold change": 0.0613}
{"chain": "RRIRARPPRLPRPRPRPYAVPRP", "shrunken log2 fold change": -0.0829}
{"chain": "RRIRDRPPRLPRPRPRPGYRPRP", "shrunken log2 fold change": 0.000964}
{"chain": "RRIRRRPPRLPRPRPRPFVYPRP", "shrunken log2 fold change": -0.0209}
{"chain": "RRIRVRPPRLPRPRPRPYIFPRP", "shrunken log2 fold change": -0.864}
{"chain": "RRIRQRPPRLPRPRPRPLYFPRP", "shrunken log2 fold change": -0.623}
{"chain": "RRIRFRPPRLPRPRPRPWRMPRP", "shrunken log2 fold change": -0.166}
{"chain": "RRIRQRPPRLPRPRPRPHYSPRP", "shrunken log2 fold change": -0.0998}
{"chain": "RRIRDRPPRLPRPRPRPQLTPRP", "shrunken log2 fold change": 0.0489}
{"chain": "RRIRGRPPRLPRPRPRPNLDPRP", "shrunken log2 fold change": 0.265}
{"chain": "RRIRCRPPRLPRPRPRPYKRPRP", "shrunken log2 fold change": -0.909}
{"chain": "RRIRKRPPRLPRPRPRPHIWPRP", "shrunken log2 fold change": 0.143}
{"chain": "RRIRYRPPRLPRPRPRPVRHPRP", "shrunken log2 fold change": -0.245}
{"chain": "RRIRIRPPRLPRPRPRPDRKPRP", "shrunken log2 fold change": -0.0167}
{"chain": "RRIRIRPPRLPRPRPRPFEIPRP", "shrunken log2 fold change": -0.0373}
{"chain": "RRIRGRPPRLPRPRPRPDGKPRP", "shrunken log2 fold change": 0.0293}
{"chain": "RRIRDRPPRLPRPRPRPHVHPRP", "shrunken log2 fold change": -0.134}
{"chain": "RRIRFRPPRLPRPRPRPTNPPRP", "shrunken log2 fold change": -0.0887}
{"chain": "RRIRPRPPRLPRPRPRPYFQPRP", "shrunken log2 fold change": -0.593}
{"chain": "RRIRFRPPRLPRPRPRPKNWPRP", "shrunken log2 fold change": 0.31}
{"chain": "RRIRTRPPRLPRPRPRPDGPPRP", "shrunken log2 fold change": 0.126}
{"chain": "RRIRLRPPRLPRPRPRPHDKPRP", "shrunken log2 fold change": 0.0709}
{"chain": "RRIRIRPPRLPRPRPRPENEPRP", "shrunken log2 fold change": -0.428}
{"chain": "RRIRCRPPRLPRPRPRPCMQPRP", "shrunken log2 fold change": -0.345}
{"chain": "RRIRLRPPRLPRPRPRPGNCPRP", "shrunken log2 fold change": -0.0913}
{"chain": "RRIRDRPPRLPRPRPRPYALPRP", "shrunken log2 fold change": -0.051}
{"chain": "RRIRYRPPRLPRPRPRPSWTPRP", "shrunken log2 fold change": -1.11}
{"chain": "RRIRQRPPRLPRPRPRPIWIPRP", "shrunken log2 fold change": -0.206}
{"chain": "RRIRDRPPRLPRPRPRPMDRPRP", "shrunken log2 fold change": -0.01}
